TESTED ON: AAK1 (GST-Xa-hAAK1) (Homo sapiens (Human))
Sequence (Q2M2I8 whole entry): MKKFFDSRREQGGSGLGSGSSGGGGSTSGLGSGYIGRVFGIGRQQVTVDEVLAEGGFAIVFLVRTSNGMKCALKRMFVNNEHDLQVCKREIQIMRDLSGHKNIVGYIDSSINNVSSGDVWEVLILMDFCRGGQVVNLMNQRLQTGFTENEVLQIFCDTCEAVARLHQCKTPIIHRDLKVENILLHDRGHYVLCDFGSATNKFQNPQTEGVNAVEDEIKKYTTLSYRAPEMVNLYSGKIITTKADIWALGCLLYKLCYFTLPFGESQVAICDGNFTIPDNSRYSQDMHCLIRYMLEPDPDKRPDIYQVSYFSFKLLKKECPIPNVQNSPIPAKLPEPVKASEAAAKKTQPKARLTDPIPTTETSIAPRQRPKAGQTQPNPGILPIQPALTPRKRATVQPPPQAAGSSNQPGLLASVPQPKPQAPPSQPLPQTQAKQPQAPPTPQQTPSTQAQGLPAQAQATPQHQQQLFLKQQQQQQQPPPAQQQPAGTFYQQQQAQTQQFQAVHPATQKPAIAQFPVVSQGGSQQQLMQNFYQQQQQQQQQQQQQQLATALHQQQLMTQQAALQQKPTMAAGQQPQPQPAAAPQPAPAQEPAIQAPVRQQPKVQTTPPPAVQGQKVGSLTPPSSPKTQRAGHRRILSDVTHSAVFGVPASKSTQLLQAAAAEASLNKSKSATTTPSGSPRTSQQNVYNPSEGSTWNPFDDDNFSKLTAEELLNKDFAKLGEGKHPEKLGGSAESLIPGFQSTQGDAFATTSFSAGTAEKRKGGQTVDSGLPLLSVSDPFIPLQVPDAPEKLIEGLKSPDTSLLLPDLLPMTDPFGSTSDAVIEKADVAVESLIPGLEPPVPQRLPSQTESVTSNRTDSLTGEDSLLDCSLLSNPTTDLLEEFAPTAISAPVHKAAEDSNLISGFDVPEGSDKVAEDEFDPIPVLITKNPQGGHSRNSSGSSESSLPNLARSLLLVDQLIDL
PROTOCOL DETAILS: AAK1 Kinase Assay
Assay type: biochemical
STUDY CONDITIONS: Table 1a, numeric values; ATP 22 μM; read-out: AAK1 IC50
Param label: returns met when IC50 < 9 nM, returns not met otherwise, including exact equality.

Consider the following illustrative entries.
[[record]]
compound = "CC(C)C[C@H](N)C(=O)Nc1ccc2c(c1)OC(C)(C)c1cnccc1-2"
tested_on = "AAK1 (GST-Xa-hAAK1) (Homo sapiens (Human))"
category = "not met"

[[record]]
compound = "CCCCC(=O)Nc1ccc2c(c1)OCc1cnccc1-2"
tested_on = "AAK1 (GST-Xa-hAAK1) (Homo sapiens (Human))"
category = "not met"

[[record]]
compound = "O=C(CCN1CCCC1=O)Nc1ccc2c(c1)OCc1cnccc1-2"
tested_on = "AAK1 (GST-Xa-hAAK1) (Homo sapiens (Human))"
category = "not met"


Next, consider the following compound.
Ask: Say whether its IC50 is strictly beneath 9 nM. Entry: CC(C)C1CCCNC1C(=O)Nc1ccc2c(c1)OCc1cnccc1-2 (centres unmarked)
Result: met

Data origin, for the record: patent US9708337B2
